EXPERIMENTAL TARGET: SARS-CoV-2 Mpro (Severe acute respiratory syndrome coronavirus 2, UniProt P0DTC1)
TEST SUMMARY: In-cell protease (ICP) assay, Mpro construct in HEK293T cells
Type: cell-based
MEASUREMENT CONDITIONS: HEK-293T, read-out: mEmerald-NLS nuclear/total fluorescence (protease activity) normalized to untreated cells, 1 μM, HEK293T, Fig 2A replicate data, untreated control = 100
Counter-ions that a name gives are not always drawn. Non-standard residues stand in square brackets, D forms with d. Residues, ends and D or L forms follow the SMILES beside them. Nle = CCCC[C@H](N)C(=O)O
Here the recorded remaining activity at 1 µM is given for each entry.
ASSAY METRIC: remaining activity at 1 µM (%)

| COMPOUND | EXPERIMENTAL TARGET | TEST RESULT |
| --- | --- | --- |
| CC(C)(C)NC(=O)N[C@H](C(=O)N1C[C@H]2[C@@H]([C@H]1C(=O)NC(CC1CCC1)C(=O)C(N)=O)C2(C)C)C(C)(C)C (stereo partly shown) | SARS-CoV-2 Mpro (Severe acute respiratory syndrome coronavirus 2, UniProt P0DTC1) | 71 |
| O[C@H]1[C@H]2c3cc4c(cc3CN3CCC(=C[C@@H]1O)[C@H]23)OCO4 [Lycorine HCl] | SARS-CoV-2 Mpro (Severe acute respiratory syndrome coronavirus 2, UniProt P0DTC1) | 43 |
| COc1cc(O)c(CC=C(C)C)c2c1C(=O)CC(c1ccc(O)cc1)O2 (stereo not shown) | SARS-CoV-2 Mpro (Severe acute respiratory syndrome coronavirus 2, UniProt P0DTC1) | 90 |
| C=C[C@@H]1C[C@]1(NC(=O)[C@@H]1C[C@@H](Oc2ncc(OC)c3ccc(Cl)cc23)CN1C(=O)[C@@H](NC(=O)OC(C)(C)C)C(C)(C)C)C(=O)NS(=O)(=O)C1CC1 | SARS-CoV-2 Mpro (Severe acute respiratory syndrome coronavirus 2, UniProt P0DTC1) | 88 |
| CCCC[C@@H](C=O)NC(=O)[C@H](CC(C)C)NC(=O)[C@H](CC(C)C)NC(C)=O [MG-101] (Ac-Leu-Leu-[Nle]-aldehyde) | SARS-CoV-2 Mpro (Severe acute respiratory syndrome coronavirus 2, UniProt P0DTC1) | 22 |
| Cc1c(O)cccc1C(=O)N[C@@H](CSc1ccccc1)[C@H](O)CN1C[C@H]2CCCC[C@H]2C[C@H]1C(=O)NC(C)(C)C [Nelfinavir mesylate] | SARS-CoV-2 Mpro (Severe acute respiratory syndrome coronavirus 2, UniProt P0DTC1) | 60 |
| Cn1c(N2CCCCS2(=O)=O)nc(C(=O)NCc2ccc(F)cc2)c(O)c1=O | SARS-CoV-2 Mpro (Severe acute respiratory syndrome coronavirus 2, UniProt P0DTC1) | 79 |
| Cc1cccc(C)c1OCC(=O)N[C@@H](Cc1ccccc1)[C@@H](O)C[C@H](Cc1ccccc1)NC(=O)[C@H](C(C)C)N1CCCNC1=O | SARS-CoV-2 Mpro (Severe acute respiratory syndrome coronavirus 2, UniProt P0DTC1) | 80 |
| COC(=O)N[C@H](C(=O)N[C@@H](Cc1ccccc1)[C@@H](O)CN(Cc1ccc(-c2ccccn2)cc1)NC(=O)[C@@H](NC(=O)OC)C(C)(C)C)C(C)(C)C | SARS-CoV-2 Mpro (Severe acute respiratory syndrome coronavirus 2, UniProt P0DTC1) | 89 |
| CC(C)(C)C#Cc1cc(N(C(=O)[C@H]2CC[C@H](C)CC2)[C@H]2CC[C@H](O)CC2)c(C(=O)O)s1 | SARS-CoV-2 Mpro (Severe acute respiratory syndrome coronavirus 2, UniProt P0DTC1) | 90 |

* * *

EXPERIMENTAL TARGET: UniProtKB P0DTC1
TEST SUMMARY: In vitro PLpro protease inhibition assay (Z-RLRGG-AMC)
Assay type: biochemical
MEASUREMENT CONDITIONS: PLpro 300 nM, Z-RLRGG-AMC 25 μM; read-out: IC50
pIC50: −log10 of the molar value.

| QUERY SMILES | pIC50 |
| --- | --- |
| N[C@@H](CC(=O)N1CCn2c(nnc2C(F)(F)F)C1)Cc1cc(F)c(F)cc1F | 5.94 |

* * *

TEST SUMMARY: Cytotoxicity assay (alamarBlue) on Huh-7.5 cells
MEASUREMENT CONDITIONS: human, CC50, Huh-7.5 cells, alamarBlue reduction
Where a name gives a salt, the structure may show the parent alone.

| MOLECULE | CC50 at 24 h |
| --- | --- |
| Cc1c(O)cccc1C(=O)N[C@@H](CSc1ccccc1)[C@H](O)CN1C[C@H]2CCCC[C@H]2C[C@H]1C(=O)NC(C)(C)C [Nelfinavir mesylate] | 25.9 µM |
| COC(=O)N[C@H](C(=O)N[C@@H](Cc1ccccc1)[C@@H](O)CN(Cc1ccc(-c2ccccn2)cc1)NC(=O)[C@@H](NC(=O)OC)C(C)(C)C)C(C)(C)C | 77.2 µM |
| COC(=O)N[C@H](C(=O)N1CCC[C@H]1c1nc(-c2ccc(-c3ccc(-c4c[nH]c([C@@H]5CCCN5C(=O)[C@@H](NC(=O)OC)C(C)C)n4)cc3)cc2)c[nH]1)C(C)C [Daclastavir HCl] | 32.1 µM |
| O[C@H]1[C@H]2c3cc4c(cc3CN3CCC(=C[C@@H]1O)[C@H]23)OCO4 [Lycorine HCl] | 18.8 µM |
